Overview of recorded binding signal for various sequences
Molecular target: MBP-FoxP1dN (Mus musculus, UniProt P58462 326-579)
Sequence: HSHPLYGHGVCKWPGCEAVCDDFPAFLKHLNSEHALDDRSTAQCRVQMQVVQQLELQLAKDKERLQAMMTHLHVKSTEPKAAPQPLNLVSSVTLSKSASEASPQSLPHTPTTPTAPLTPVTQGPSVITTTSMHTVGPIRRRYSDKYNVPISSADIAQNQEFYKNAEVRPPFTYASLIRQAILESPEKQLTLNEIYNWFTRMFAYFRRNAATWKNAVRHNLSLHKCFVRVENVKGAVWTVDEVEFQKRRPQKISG
Assay: PD-seq (MBP pull-down with sequencing); 20 mM Tris-HCl pH 7.5, 100 mM NaCl, 1.5 mM MgCl2, 0.4 uM protein, 0.1 uM dsDNA library, 30 min, room temperature, amylose pull-down; high values mean tight binding
Settings: protein: recombinant; tags: His6-MBP; chain copies: 2; dsDNA, one strand shown
Over roughly 16,000 sequences, “rpm ratio (pull-down/input)” has its median near 0.94; the highest 2% begin near 1.7. The full list was thinned out, with the highest values kept by preference.

[
  {
    "CHAIN": "GATGATTGTTCTCCCAGCTGATGAATTTGGTGTATCGAGTAAACAAATTTTCCTAATCTTTCTGTTCAAGCGCCATCTAC",
    "binding signal": "1.17 RPM ratio (pull-down/input)"
  },
  {
    "CHAIN": "GATGATTGTTCTCCCAGCTGATGAATTTGATTGGTCGAGTAAACAAATTTTCCTAATCTTTCTGTTCAAGCGCCATCTAC",
    "binding signal": "0.963 RPM ratio (pull-down/input)"
  },
  {
    "CHAIN": "GATGATTGTTCTCCCAGCTGATGAATTCTTTGTATCGAGTAAACAAATTTTCCTAATCTTTCTGTTCAAGCGCCATCTAC",
    "binding signal": "1.21 RPM ratio (pull-down/input)"
  },
  {
    "CHAIN": "GATGATTGTTCTCCCAGCTGATGAATTTGTATACTCGAGTAAACAAATTTTCCTAATCTTTCTGTTCAAGCGCCATCTAC",
    "binding signal": "2.13 RPM ratio (pull-down/input)"
  },
  {
    "CHAIN": "GATGATTGTTCTCCCAGCTGATGAATTGTTTGGGTCGAGTAAACAAATTTTCCTAATCTTTCTGTTCAAGCGCCATCTAC",
    "binding signal": "1.79 RPM ratio (pull-down/input)"
  },
  {
    "CHAIN": "GATGATTGTTCTCCCAGCTGATGAATTCGTCCCCTCGAGTAAACAAATTTTCCTAATCTTTCTGTTCAAGCGCCATCTAC",
    "binding signal": "0.772 RPM ratio (pull-down/input)"
  },
  {
    "CHAIN": "GATGATTGTTCTCCCAGCTGATGAATTCTGTGTATCGAGTAAACAAATTTTCCTAATCTTTCTGTTCAAGCGCCATCTAC",
    "binding signal": "1.79 RPM ratio (pull-down/input)"
  }
]

Each recorded value in this set is attributed to paper PMC12820563.
